experiment: Clearance in Wistar Hannover rat at 1 mg/kg, iv by LC-MS analysis; type: ADME, organism-based; conditions: in vivo
reported_metric: clearance

- Cc1cc(C(=O)NC(C)(C)C)cc(C#Cc2ccc3c4c(oc3c2)C(C)(C)c2cc(NS(C)(=O)=O)ccc2C4=O)n1: 1.07 mL/min/kg

---

target: Tyrosine-protein kinase Lck (Homo sapiens)
Sequence (P06239 whole entry): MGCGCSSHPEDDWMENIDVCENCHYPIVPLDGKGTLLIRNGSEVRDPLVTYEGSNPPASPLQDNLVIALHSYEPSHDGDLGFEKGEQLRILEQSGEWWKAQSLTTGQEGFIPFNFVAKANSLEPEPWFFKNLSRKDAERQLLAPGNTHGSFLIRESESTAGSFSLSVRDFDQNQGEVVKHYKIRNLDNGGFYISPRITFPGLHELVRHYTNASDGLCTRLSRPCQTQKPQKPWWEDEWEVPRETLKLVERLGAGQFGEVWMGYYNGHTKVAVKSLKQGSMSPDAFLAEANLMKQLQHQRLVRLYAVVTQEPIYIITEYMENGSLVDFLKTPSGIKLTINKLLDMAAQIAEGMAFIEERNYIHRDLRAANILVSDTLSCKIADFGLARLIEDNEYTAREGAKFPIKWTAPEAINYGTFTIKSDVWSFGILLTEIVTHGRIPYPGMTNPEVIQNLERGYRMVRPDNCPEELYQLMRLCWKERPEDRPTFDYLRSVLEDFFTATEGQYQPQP
// reported IC50 per item
reported_metric: IC50 (nM)

* CC1(C)c2cc(OCCN3CCOCC3)ccc2C(=O)c2c1oc1cc(C#Cc3cc(OCC(F)(F)F)ccn3)ccc21 | 330
* CC1(C)NC(=O)N(CCOc2ccc3c(c2)C(C)(C)c2oc4cc(C#Cc5cc(OCC6CC6)ccn5)ccc4c2C3=O)C1=O | 140
* CC1(C)c2cc(N3CCNC(=O)C3)ccc2C(=O)c2c1oc1cc(C#Cc3cc(OCC4CC4)ccn3)ccc21 | 50
* CC1(C)c2cc(OCCN3CCOCC3)ccc2C(=O)c2c1oc1cc(C#Cc3cc(OCC4(CO)CC4)ccn3)ccc21 | 370
* CC1(C)c2cc(OCCN3C4CCC3COC4)ccc2C(=O)c2c1oc1cc(C#Cc3cc(OCC4CC4)ccn3)ccc21 | 170
* CC1(C)c2cc(NS(C)(=O)=O)ccc2C(=O)c2c1oc1cc(C#Cc3cc(C(=O)NC4CC4)ccn3)ccc21 | 145
* CC1(COc2ccnc(C#Cc3ccc4c5c(oc4c3)C(C)(C)c3cc(OCCN4CCOCC4)ccc3C5=O)c2)CC1 | 160
* CC1(C)c2cc(N3CC4(COC4)C3)ccc2C(=O)c2c1oc1cc(C#Cc3cc(OCC4CC4)ccn3)ccc21 | 86

---

assay: Half life in Wistar Hannover rat at 1 mg/kg, po by LC-MS analysis; format: ADME, organism-based; settings: in vivo
reported_metric: half-life (h)

- Cc1cc(C(=O)NC(C)(C)C)cc(C#Cc2ccc3c4c(oc3c2)C(C)(C)c2cc(NS(C)(=O)=O)ccc2C4=O)n1: 9.01

---

assay: Half life in Beagle dog at 1 mg/kg, iv by LC-MS analysis; type: ADME, organism-based, Canis lupus familiaris; settings: in vivo
reported_metric: half-life (h)

* Cc1cc(C(=O)NC(C)(C)C)cc(C#Cc2ccc3c4c(oc3c2)C(C)(C)c2cc(NS(C)(=O)=O)ccc2C4=O)n1 | 12.7

---

target: Receptor tyrosine-protein kinase erbB-2 (Homo sapiens, UniProt P04626)
Sequence (P04626 whole entry): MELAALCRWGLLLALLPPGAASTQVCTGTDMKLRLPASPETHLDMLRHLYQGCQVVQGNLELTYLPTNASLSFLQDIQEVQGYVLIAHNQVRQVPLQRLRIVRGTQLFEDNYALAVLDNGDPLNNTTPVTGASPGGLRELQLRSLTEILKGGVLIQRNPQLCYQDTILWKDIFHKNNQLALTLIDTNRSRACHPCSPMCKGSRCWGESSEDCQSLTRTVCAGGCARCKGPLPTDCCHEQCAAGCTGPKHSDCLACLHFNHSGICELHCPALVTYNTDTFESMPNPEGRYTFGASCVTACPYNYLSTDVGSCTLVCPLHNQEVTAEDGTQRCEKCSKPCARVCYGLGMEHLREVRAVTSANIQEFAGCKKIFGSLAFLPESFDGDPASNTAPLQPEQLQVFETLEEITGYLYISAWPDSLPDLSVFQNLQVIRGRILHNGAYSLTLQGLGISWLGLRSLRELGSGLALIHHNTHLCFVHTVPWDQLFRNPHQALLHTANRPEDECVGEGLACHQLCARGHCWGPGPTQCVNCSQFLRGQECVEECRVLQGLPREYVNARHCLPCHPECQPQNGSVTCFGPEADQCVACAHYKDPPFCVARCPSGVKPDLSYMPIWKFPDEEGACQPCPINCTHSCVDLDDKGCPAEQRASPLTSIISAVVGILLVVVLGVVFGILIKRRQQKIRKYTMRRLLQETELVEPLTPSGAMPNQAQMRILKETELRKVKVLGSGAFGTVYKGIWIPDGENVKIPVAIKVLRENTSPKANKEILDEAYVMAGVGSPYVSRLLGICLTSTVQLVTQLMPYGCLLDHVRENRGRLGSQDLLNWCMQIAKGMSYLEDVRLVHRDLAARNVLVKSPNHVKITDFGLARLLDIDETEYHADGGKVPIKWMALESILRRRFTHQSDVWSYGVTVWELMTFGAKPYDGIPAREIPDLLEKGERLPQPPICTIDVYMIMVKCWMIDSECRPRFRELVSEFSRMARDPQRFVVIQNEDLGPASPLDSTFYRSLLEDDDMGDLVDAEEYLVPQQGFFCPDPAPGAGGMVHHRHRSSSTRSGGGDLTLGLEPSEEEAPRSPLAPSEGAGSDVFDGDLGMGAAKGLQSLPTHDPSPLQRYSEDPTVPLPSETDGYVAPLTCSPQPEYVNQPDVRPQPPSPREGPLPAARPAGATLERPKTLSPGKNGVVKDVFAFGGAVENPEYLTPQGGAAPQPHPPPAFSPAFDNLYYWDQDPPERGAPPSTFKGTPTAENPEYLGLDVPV
reported_metric: IC50

- Cc1cc(C(=O)NC(C)(C)C)cc(C#Cc2ccc3c4c(oc3c2)C(C)(C)c2cc(NS(C)(=O)=O)ccc2C4=O)n1: > 10 µM

---

pIC50: −log10 of the molar value.
Below are molecules with their pIC50 as measured on High affinity nerve growth factor receptor (Homo sapiens, UniProt P04629).
Sequence (P04629 whole entry): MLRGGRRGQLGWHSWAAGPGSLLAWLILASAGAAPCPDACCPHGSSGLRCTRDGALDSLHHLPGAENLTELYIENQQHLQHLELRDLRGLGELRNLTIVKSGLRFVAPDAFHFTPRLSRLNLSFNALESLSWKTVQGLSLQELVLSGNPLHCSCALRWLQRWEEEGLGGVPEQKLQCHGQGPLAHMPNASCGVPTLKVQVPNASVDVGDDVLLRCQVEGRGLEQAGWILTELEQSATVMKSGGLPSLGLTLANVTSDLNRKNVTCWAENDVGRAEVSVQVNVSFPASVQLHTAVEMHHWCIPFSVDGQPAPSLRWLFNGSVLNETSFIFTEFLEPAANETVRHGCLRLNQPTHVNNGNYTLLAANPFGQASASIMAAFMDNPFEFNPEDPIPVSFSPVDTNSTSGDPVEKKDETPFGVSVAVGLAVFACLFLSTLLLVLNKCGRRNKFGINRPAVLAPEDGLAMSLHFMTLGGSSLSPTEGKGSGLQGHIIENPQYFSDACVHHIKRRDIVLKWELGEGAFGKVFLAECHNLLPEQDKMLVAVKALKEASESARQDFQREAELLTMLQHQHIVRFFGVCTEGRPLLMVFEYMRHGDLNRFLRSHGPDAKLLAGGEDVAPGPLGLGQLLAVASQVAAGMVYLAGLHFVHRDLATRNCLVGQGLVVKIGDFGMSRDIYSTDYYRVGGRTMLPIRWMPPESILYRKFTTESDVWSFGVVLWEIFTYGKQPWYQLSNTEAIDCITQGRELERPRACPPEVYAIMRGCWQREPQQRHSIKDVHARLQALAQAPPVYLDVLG
reported_metric: pIC50

- CC1(C)c2cc(OCCN3CCNC(=O)C3)ccc2C(=O)c2c1oc1cc(C#Cc3cc(OCC4CC4)ccn3)ccc21: 8.68
- CC1(C)c2cc(N3CC4(COC4)C3)ccc2C(=O)c2c1oc1cc(C#Cc3cc(OCC4CC4)ccn3)ccc21: 8.52
- CC1(C)c2cc(NS(C)(=O)=O)ccc2C(=O)c2c1oc1cc(C#Cc3cc(OCC4CC4)ccn3)ccc21: 8.41
- Cc1cc(C(=O)NC(C)(C)C)cc(C#Cc2ccc3c4c(oc3c2)C(C)(C)c2cc(NS(C)(=O)=O)ccc2C4=O)n1: 8.92
- CCCc1cc(C(=O)NC(C)(C)C)cc(C#Cc2ccc3c4c(oc3c2)C(C)(C)c2cc(NS(C)(=O)=O)ccc2C4=O)n1: 8.92
- CC1(C)c2cc(OCCN3CC4(COC4)C3)ccc2C(=O)c2c1oc1cc(C#Cc3cc(OCC4CC4)ccn3)ccc21: 8.40
- CC(C)(C)NC(=O)c1cc(C#N)nc(C#Cc2ccc3c4c(oc3c2)C(C)(C)c2cc(NS(C)(=O)=O)ccc2C4=O)c1: 8.55
- CC1(C)c2cc(NS(C)(=O)=O)ccc2C(=O)c2c1oc1cc(C#Cc3cc(OCC(F)(F)F)ccn3)ccc21: 8.66
- CC1(C)c2cc(NS(C)(=O)=O)ccc2C(=O)c2c1oc1cc(C#Cc3cc(C(=O)NC4CC4)ccn3)ccc21: 8.62
- CC1(C)c2cc(OCCN3CCOCC3)ccc2C(=O)c2c1oc1cc(C#Cc3cc(C(=O)NC4CC4)ccn3)ccc21: 8.89
- CC1(C)NC(=O)N(CCOc2ccc3c(c2)C(C)(C)c2oc4cc(C#Cc5cc(OCC6CC6)ccn5)ccc4c2C3=O)C1=O: 7.89
- CC(C)(C)NC(=O)c1cc(C#Cc2ccc3c4c(oc3c2)C(C)(C)c2cc(NS(C)(=O)=O)ccc2C4=O)nc(C(F)(F)F)c1: 8.59
- CC1(C)c2cc(OCCN3CCOCC3)ccc2C(=O)c2c1oc1cc(C#Cc3cc(OCC4CC4)ccn3)ccc21: 8.35
- Cc1c(C(=O)NC(C)(C)C)ccnc1C#Cc1ccc2c3c(oc2c1)C(C)(C)c1cc(NS(C)(=O)=O)ccc1C3=O: 8.42
- CC1(C)c2cc(OCCN3C4CCC3COC4)ccc2C(=O)c2c1oc1cc(C#Cc3cc(OCC4CC4)ccn3)ccc21: 7.74
- CC1(C)c2cc(OCCN3CCCOCC3)ccc2C(=O)c2c1oc1cc(C#Cc3cc(OCC4CC4)ccn3)ccc21: 8.55

---

target: NT-3 growth factor receptor (Homo sapiens, UniProt Q16288)
Sequence (Q16288 whole entry): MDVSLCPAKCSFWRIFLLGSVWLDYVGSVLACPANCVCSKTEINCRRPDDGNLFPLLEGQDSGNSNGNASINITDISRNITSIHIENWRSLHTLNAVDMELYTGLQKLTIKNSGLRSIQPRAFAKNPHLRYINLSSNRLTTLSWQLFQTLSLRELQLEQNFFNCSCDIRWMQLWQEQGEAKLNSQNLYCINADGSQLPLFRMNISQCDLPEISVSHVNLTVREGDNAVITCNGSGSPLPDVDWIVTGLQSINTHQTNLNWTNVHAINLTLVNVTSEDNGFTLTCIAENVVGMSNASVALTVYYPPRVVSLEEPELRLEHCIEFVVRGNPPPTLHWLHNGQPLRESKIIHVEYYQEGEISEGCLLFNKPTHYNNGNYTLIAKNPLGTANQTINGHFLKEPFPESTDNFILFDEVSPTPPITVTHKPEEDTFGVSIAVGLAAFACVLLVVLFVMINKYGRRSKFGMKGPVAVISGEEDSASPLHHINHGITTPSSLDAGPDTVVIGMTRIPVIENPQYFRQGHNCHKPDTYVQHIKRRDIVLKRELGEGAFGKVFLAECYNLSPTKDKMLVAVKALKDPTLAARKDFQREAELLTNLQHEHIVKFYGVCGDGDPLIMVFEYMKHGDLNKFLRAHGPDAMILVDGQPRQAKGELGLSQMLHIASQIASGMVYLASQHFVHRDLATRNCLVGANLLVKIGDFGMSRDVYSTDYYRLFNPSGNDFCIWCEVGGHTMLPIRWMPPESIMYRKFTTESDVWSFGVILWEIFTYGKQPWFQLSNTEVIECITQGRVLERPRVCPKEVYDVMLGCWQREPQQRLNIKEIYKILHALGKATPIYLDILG
pIC50: −log10 of the molar value.
reported_metric: pIC50

• Cc1cc(C(=O)NC(C)(C)C)cc(C#Cc2ccc3c4c(oc3c2)C(C)(C)c2cc(NS(C)(=O)=O)ccc2C4=O)n1 = 8.55

---

target: Hepatocyte growth factor receptor (Homo sapiens, UniProt P08581)
reported_metric: IC50

• Cc1cc(C(=O)NC(C)(C)C)cc(C#Cc2ccc3c4c(oc3c2)C(C)(C)c2cc(NS(C)(=O)=O)ccc2C4=O)n1 = > 10 µM

---

target: CYP3A4 (Homo sapiens); assay: Induction of CYP3A4 in human hepatocytes assessed as fold induction at 1 uM using testosterone as substrate preincubated with replacement of fresh medium containing compound every 24 hrs for 72 hrs followed by substrate addition and measured after 1 hr by LC-MS/MS analysis relative to control; format: ADME, cell-based, Hepatocyte; conditions: probe testosterone, time 73 hrs, read-out: FC
Sequence (P08684 whole entry): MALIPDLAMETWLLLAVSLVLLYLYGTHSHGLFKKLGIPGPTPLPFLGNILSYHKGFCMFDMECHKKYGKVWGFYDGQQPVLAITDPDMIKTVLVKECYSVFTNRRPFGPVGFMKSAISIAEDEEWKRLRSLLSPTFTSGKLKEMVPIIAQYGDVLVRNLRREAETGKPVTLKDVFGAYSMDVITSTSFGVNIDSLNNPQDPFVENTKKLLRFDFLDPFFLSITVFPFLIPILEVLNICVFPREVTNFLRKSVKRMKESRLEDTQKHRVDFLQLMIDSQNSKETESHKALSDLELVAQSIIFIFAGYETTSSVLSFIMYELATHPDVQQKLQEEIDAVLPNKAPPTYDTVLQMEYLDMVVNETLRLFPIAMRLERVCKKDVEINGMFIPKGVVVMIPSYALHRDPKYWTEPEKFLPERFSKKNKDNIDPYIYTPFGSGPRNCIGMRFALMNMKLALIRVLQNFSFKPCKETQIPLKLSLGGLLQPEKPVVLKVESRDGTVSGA
reported_metric: fold induction at 1 h, 1 µM

• CC1(C)c2cc(OCCN3CCOCC3)ccc2C(=O)c2c1oc1cc(C#Cc3cc(OCC4CCC4)ccn3)ccc21 = 3.1
• CC1(C)c2cc(N3CCOCC3)ccc2C(=O)c2c1oc1cc(C#Cc3cc(OCC4CC4)ccn3)ccc21 = 5.4
• CC1(C)c2cc(N3CC4(COC4)C3)ccc2C(=O)c2c1oc1cc(C#Cc3cc(OCC4CC4)ccn3)ccc21 = 2.6
• CC1(C)c2cc(OCCN3CCOCC3)ccc2C(=O)c2c1oc1cc(C#Cc3cc(OCC(F)(F)F)ccn3)ccc21 = 6.3
• CC1(C)c2cc(OCCN3CCNC(=O)C3)ccc2C(=O)c2c1oc1cc(C#Cc3cc(OCC4CC4)ccn3)ccc21 = 5.2
• CC1(C)c2cc(OCCN3CCOCC3)ccc2C(=O)c2c1oc1cc(C#Cc3cc(C(=O)NC4CC4)ccn3)ccc21 = 12
• Cc1cc(C(=O)NC(C)(C)C)cc(C#Cc2ccc3c4c(oc3c2)C(C)(C)c2cc(NS(C)(=O)=O)ccc2C4=O)n1 = 3
• CC1(C)c2cc(OCCN3CCCOCC3)ccc2C(=O)c2c1oc1cc(C#Cc3cc(OCC4CC4)ccn3)ccc21 = 6.1
• CC1(C)NC(=O)N(CCOc2ccc3c(c2)C(C)(C)c2oc4cc(C#Cc5cc(OCC6CC6)ccn5)ccc4c2C3=O)C1=O = 1.9
• CC(C)(C)NC(=O)c1cc(Cl)nc(C#Cc2ccc3c4c(oc3c2)C(C)(C)c2cc(NS(C)(=O)=O)ccc2C4=O)c1 = 3
• CC1(C)c2cc(OCCN3CCOCC3)ccc2C(=O)c2c1oc1cc(C#Cc3cc(OCC4(CO)CC4)ccn3)ccc21 = 7.9
• CC1(C)c2cc(OCCN3C4CCC3COC4)ccc2C(=O)c2c1oc1cc(C#Cc3cc(OCC4CC4)ccn3)ccc21 = 6.7
• COCCOc1ccnc(C#Cc2ccc3c4c(oc3c2)C(C)(C)c2cc(OCCN3CCOCC3)ccc2C4=O)c1 = 6.3
• CC1(C)c2cc(OCCN3CCOCC3)ccc2C(=O)c2c1oc1cc(C#Cc3cc(OCC4CC4)ccn3)ccc21 = 6.5
• CC(C)(C)NC(=O)c1cc(C#Cc2ccc3c4c(oc3c2)C(C)(C)c2cc(NS(C)(=O)=O)ccc2C4=O)nc(C(F)(F)F)c1 = 2.5
• CC1(C)c2cc(N3CCNC(=O)C3)ccc2C(=O)c2c1oc1cc(C#Cc3cc(OCC4CC4)ccn3)ccc21 = 4.2

---

assay: Half life in Beagle dog at 1 mg/kg, po by LC-MS analysis; type: ADME, organism-based, Canis lupus familiaris; conditions: in vivo
reported_metric: half-life (h)

* Cc1cc(C(=O)NC(C)(C)C)cc(C#Cc2ccc3c4c(oc3c2)C(C)(C)c2cc(NS(C)(=O)=O)ccc2C4=O)n1 | 15.2

Measured values drawn from ChEMBL document CHEMBL5113522 for this set.
